experiment: chemical genetic growth profiling, strain panel (AID 1159580);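 note: tested at 20 µM; growth read once vehicle control cultures reached saturation at 30 °C; 1 = growth at the plate median or of vehicle wells; lower values mean less growth of the strain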; details: S. cerevisiae deletion strains, growth OD, locus YCL069W, strain vba3, active compounds read low
The whole screen tested about 5,500 compounds, of which about 2,000 (36%) were called active. Not shown: some 18% with an inconclusive outcome. Some of the results follow.
Each record is given true (1) if its reported normalized growth is strictly below 1. Records at or above 1 are given false (0).

compound	category
COc1cc2occc2c2oc(=O)ccc12	false (0)
C=C1CCC2(OC1)OC1CC3C4CC=C5CC(O)CC(O)C5(C)C4CCC3(C)C1C2C (centres undefined)	true (1)
CC1CC[C@@]2(OC1)O[C@H]1CC3C4CC[C@@H]5C[C@@H](O)CC[C@]5(C)C4CC[C@]3(C)[C@H]1[C@@H]2C (some centres undefined)	false (0)
